Every entry's value here was drawn from PubChem BioAssay (NCI).

System: EKVX NSCLC
Experiment: NCI tumour cell line growth inhibition, 48 h
quantity.name: GI50

INSERT INTO measurements (compound, result) VALUES
  ('COc1ccc2c(c1)OCC1c3cc(OC)c4ccccc4c3OC21 (stereo unspecified)', '25.1 µM'),
  ('O=C(Cc1cc(O)ccc1O)NO', '> 100 µM'),
  ('Cc1[nH]c(C(=O)Nc2cccc(OC3CCNCC3)c2)c(Cl)c1Cl', '1.57 µM'),
  ('c1cc[n+](Cc2c3ccccc3cc3c2ccc2ccccc23)cc1', '19.5 µM'),
  ('CCN1CCN(Cc2ccc(NC(=O)Nc3nc(-c4cc(OC)c(OC)c(OC)c4)cs3)cc2C(F)(F)F)CC1', '1.81 µM'),
  ('Clc1nc(Cl)c2ncn(-c3ccccc3)c2n1', '4.49 µM');

* * *

System: ACHN renal
Assay: NCI tumour cell line growth inhibition, 48 h
quantity.name: TGI

INSERT INTO assay_data (compound, result) VALUES
  ('O=c1ccn(C/C=C/c2ccccc2)c(=S)n1C/C=C/c1ccccc1', '> 100 µM'),
  ('NC(=O)C1=C(O)[C@@]2(O)C(=O)C3=C(O)c4c(O)cccc4CC3C[C@H]2CC1=O (stereo partly specified)', '19.5 µM'),
  ('CCCCC/C=C\C=C\CCCCCCCCC(=O)OC', '> 100 µM'),
  ('CC(C)N(C(C)C)S(=O)(=O)CC12CCC(C/C1=N\O)C2 (stereo unspecified)', '> 100 µM'),
  ('COc1ccc2nc3cc([N+](=O)[O-])ccc3c(NCCO)c2c1', '31.7 µM'),
  ('O=C1c2ccccc2C(=O)c2c1oc1cc(O)c(Cl)cc21', '17 µM'),
  ('CC(C)N(CC(=O)O)CC(=O)O', '> 100 µM'),
  ('CC(C)(C)OC(=O)N(O)CCCn1cnc2c(NC3CC3)ncnc21', '> 100 µM'),
  ('Nc1ccc(-c2nc3ccccc3s2)cc1CO', '> 100 µM'),
  ('COc1ccc2c(O)c1-c1c(OC)ccc(c1O)SSc1ccc(OC)c(c1O)-c1c(OC)ccc(c1O)SS2', '18.5 µM'),
  ('Cc1n[nH]c(=O)n1/N=C/c1ccco1', '> 100 µM');

* * *

GI50 values, listed per item
System: MDA-MB-435
quantity.name: GI50

INSERT INTO measurements (compound, target, quantity_name, result) VALUES
  ('O=C(O)c1ccc(CSc2nc3ccccc3[nH]2)cc1', 'MDA-MB-435', 'GI50', '> 100 µM'),
  ('COc1ccc(-c2nc3sccn3c2-c2ccnc(NCCNS(=O)(=O)c3ccc(C(F)(F)F)cc3)n2)cc1', 'MDA-MB-435', 'GI50', '1.44 µM'),
  ('N#CC1=C(N)N=C(N2CCOCC2)C(C#N)C12Nc1ccccc1S2 (stereo not given)', 'MDA-MB-435', 'GI50', '22.9 µM'),
  ('O=C(Cc1cc(O)ccc1O)NO', 'MDA-MB-435', 'GI50', '15.4 µM'),
  ('C=C(C)[C@@H]1CC[C@]2(C(=O)O)CC[C@]3(C)[C@H](CC[C@@H]4[C@@]5(C)C/C(=C/c6ccco6)C(=O)C(C)(C)[C@@H]5CC[C@]43C)[C@@H]12', 'MDA-MB-435', 'GI50', '3.55 µM'),
  ('CCOC(=O)c1c(-c2ccccc2)n2c(=O)cc(C)c3c(O)c(O)cc1c32', 'MDA-MB-435', 'GI50', '15.7 µM'),
  ('CO/N=C(/C)COc1ccc2c(c1)oc(=O)c1cc(OC)ccc12', 'MDA-MB-435', 'GI50', '> 100 µM'),
  ('COc1ccc(OC)c(C2=C(c3cn(C)c4ccccc34)C(=O)NC2=O)c1', 'MDA-MB-435', 'GI50', '8.6 µM'),
  ('CCCCCOC(=O)Nc1nc(=O)n(C2OC(C)C(O)C2O)cc1F (stereo not given)', 'MDA-MB-435', 'GI50', '> 10000 µM'),
  ('COc1ccc(N=Nc2ccc(O)c(=O)cc2)cc1', 'MDA-MB-435', 'GI50', '4.02 µM');
